These data points were gathered from patent US20210369710A1.

Recorded measurements of Dmax at 2 µM, one per entry
# Tgt: MycC Protein (Homo sapiens, UniProt P01106)
# Construct: endogenous in cells; host or cells: HL-60 or SKNBE2
# Sequence (P01106 whole entry): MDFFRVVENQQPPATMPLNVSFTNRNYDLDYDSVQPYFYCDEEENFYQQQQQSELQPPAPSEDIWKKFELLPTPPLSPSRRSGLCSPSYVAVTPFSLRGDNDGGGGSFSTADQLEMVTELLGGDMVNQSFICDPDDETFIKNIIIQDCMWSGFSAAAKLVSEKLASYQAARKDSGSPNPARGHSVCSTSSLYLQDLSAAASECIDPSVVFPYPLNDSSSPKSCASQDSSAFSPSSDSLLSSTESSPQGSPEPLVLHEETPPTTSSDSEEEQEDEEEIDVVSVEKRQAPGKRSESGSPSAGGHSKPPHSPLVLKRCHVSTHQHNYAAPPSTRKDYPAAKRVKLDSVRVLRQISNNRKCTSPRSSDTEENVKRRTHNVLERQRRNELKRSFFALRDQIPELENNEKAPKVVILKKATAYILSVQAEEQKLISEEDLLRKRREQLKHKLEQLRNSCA
# Protocol summary: Degradation of MycC protein, Western blot band density in cells
# Type: cell-based
# Measurement setup: HL-60 or SKNBE2 cells; 6 uL of compound (1 mM) added to 3 mL cells; 6 hours; Western blot band density (ImageJ)

O=C(NC1CCC2(CC1)COC2)N[C@H]1CC[C@H](Nc2nccc(Nc3cc(C4CCCC4)[nH]n3)n2)CC1 [Compound 49] | < 20%
CN(c1nccc(Nc2cc(C3CCC3)[nH]n2)n1)[C@H]1CC[C@H](NC(=O)NC2Cc3ccc(C#N)cc3C2)CC1 (some centres unmarked) [Compound 144] | 80 to 100%
CN(c1nccc(Nc2cc(C3CC3)[nH]n2)n1)[C@H]1CC[C@H](NC(=O)NC2Cc3ccc(C#N)cc3C2)CC1 (some centres unmarked) [Compound 142] | 80 to 100%
O=C(NC1CCN(C2COC2)CC1)N[C@H]1CC[C@H](Nc2nccc(Nc3cc(C4CCCC4)[nH]n3)n2)CC1 [Compound 12] | < 20%
O=C(NC1CCC(Nc2nccc(Nc3cc(C4CCCC4)[nH]n3)n2)CC1)NC1CCCN(C2CC2)C1 (centres unmarked) [Compound 60] | 50 to 79%
O=C(Nc1cccc(C(F)(F)F)c1)N[C@H]1CC[C@H](Nc2nccc(Nc3cc(C4CCCC4)[nH]n3)n2)CC1 [Compound 39] | 20 to 49%
O=C(N[C@@H]1CCC[C@H](C(F)(F)F)C1)N[C@H]1CC[C@H](Nc2nccc(Nc3cc(C4CCCC4)[nH]n3)n2)CC1 [Compound 35] | 20 to 49%
O=C(NC1COC1)N[C@H]1CC[C@H](Nc2nccc(Nc3cc(C4CCCC4)[nH]n3)n2)CC1 [Compound 46] | < 20%

Quote Dmax at 2 µM reported for O=C(NC1CS(=O)(=O)C1)N[C@H]1CC[C@H](Nc2nccc(Nc3cc(C4CCCC4)[nH]n3)n2)CC1 [Compound 34] please.
50 to 79%

Quote Dmax at 2 µM reported for CN(C(=O)N[C@H]1CC[C@H](N(C)c2nccc(Nc3cc(C4CCCC4)[nH]n3)n2)CC1)C1Cc2ccc(C#N)cc2C1 (some centres unmarked) [Compound 153] please.
50 to 79%

Quote Dmax at 2 µM reported for Cc1cc(Nc2ccnc(N[C@H]3CC[C@H](NC(=O)N[C@H]4CC[C@H](S(C)(=O)=O)CC4)CC3)n2)n[nH]1 [Compound 32] please.
< 20%

Quote Dmax at 2 µM reported for CO[C@H]1c2ccccc2C[C@H]1NC(=O)N[C@H]1CC[C@H](Nc2nccc(Nc3cc(C)[nH]n3)n2)CC1 [Compound 105] please.
< 20%

Quote Dmax at 2 µM reported for CC1(NC(=O)N[C@H]2CC[C@H](Nc3nccc(Nc4cc(C5CCCC5)[nH]n4)n3)CC2)CCOCC1 [Compound 38] please.
50 to 79%

Quote Dmax at 2 µM reported for [H]/N=C(\Nc1cccc(C(F)(F)F)c1)N[C@H]1CC[C@H](Nc2nccc(Nc3cc(C4CCCC4)[nH]n3)n2)CC1 [Compound 81] please.
80 to 100%

====

# Tgt: MycN Protein (Homo sapiens)
# Construct: endogenous in cells; host or cells: HL-60 or SKNBE2
# Sequence (P04198 whole entry): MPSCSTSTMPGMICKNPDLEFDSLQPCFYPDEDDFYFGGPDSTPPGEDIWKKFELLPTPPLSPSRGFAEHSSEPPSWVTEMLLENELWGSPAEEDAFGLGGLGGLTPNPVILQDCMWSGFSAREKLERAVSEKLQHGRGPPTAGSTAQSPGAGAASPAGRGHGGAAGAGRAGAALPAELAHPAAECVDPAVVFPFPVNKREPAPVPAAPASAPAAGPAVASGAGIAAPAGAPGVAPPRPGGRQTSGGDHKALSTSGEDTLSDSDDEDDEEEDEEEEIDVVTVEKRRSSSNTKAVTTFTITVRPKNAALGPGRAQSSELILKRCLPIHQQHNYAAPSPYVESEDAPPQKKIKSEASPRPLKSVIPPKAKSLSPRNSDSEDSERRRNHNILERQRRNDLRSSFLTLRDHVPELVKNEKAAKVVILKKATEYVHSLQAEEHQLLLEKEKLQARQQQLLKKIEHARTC
# Protocol summary: Degradation of MycN protein, Western blot band density in cells
# Type: cell-based
# Measurement setup: HL-60 or SKNBE2 cells; 6 uL of compound (1 mM) added to 3 mL cells; 6 hours; Western blot band density (ImageJ)
Recorded measurements of Dmax at 2 µM, one per entry

CS(=O)(=O)N1CC(NC(=O)N[C@H]2CC[C@H](Nc3nccc(Nc4cc(C5CCCC5)[nH]n4)n3)CC2)C1 [Compound 56] | < 20%
CO[C@H]1C[C@H](NC(=O)NC2CCC(Nc3nccc(Nc4cc(C5CCCC5)[nH]n4)n3)CC2)C1 (stereo partly shown) [Compound 44] | < 20%
CN(C)C(=N)c1ccc2c(c1)CC(NC(=O)N[C@H]1CC[C@H](Nc3nccc(Nc4cc(C5CCCC5)[nH]n4)n3)CC1)C2 (stereo partly shown) [Compound 98] | < 20%

In the following, a different molecule is considered.
Quote Dmax at 2 µM reported for O=C(NC1COC1)N[C@H]1CC[C@H](Nc2nccc(Nc3cc(C4CCCC4)[nH]n3)n2)CC1 [Compound 46] please.
20 to 49%
